Below, each of the molecules is paired with its reported Kd value.
# ASSAY TARGET: kinase domain protein of RC kinase (RCK) (Homo sapiens, UniProt Q56UN5)
# Sequence (Q56UN5 1061-1324 limits assumed): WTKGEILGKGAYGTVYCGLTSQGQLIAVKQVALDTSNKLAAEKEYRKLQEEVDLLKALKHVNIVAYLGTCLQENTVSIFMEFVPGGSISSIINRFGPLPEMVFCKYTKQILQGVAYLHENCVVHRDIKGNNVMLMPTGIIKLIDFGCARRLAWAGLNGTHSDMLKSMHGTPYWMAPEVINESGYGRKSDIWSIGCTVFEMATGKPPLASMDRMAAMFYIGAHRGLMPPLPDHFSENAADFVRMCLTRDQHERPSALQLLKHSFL

Example molecules with recorded Kd:
Qu. Specify reported Kd for the molecule shown: NC(=O)c1c(Nc2ccc(NC(=O)c3ccc(C(F)(F)F)cc3)cc2)n[nH]c1NCc1ccc(O)cc1 [reference compound]
Ans. 50 to 100 nM

Qu. Specify reported Kd for the molecule shown: NC(=O)c1c(Nc2ccc(N3CCN(C(=O)N4CCCC4)CC3)cc2)n[nH]c1NCc1ccc(O)cc1 [reference compound]
Ans. < 50 nM

Qu. Specify reported Kd for the molecule shown: NC(=O)c1c(Nc2ccc(N3CCN(C(=O)N4CCOCC4)CC3)cc2)n[nH]c1NCc1ccc(O)cc1 [reference compound]
Ans. < 50 nM

Qu. Specify reported Kd for the molecule shown: CC1CCN(c2ccc(Nc3n[nH]c(NCc4ccc(O)cc4)c3C(N)=O)cc2)CC1 [reference compound]
Ans. < 50 nM

Qu. Specify reported Kd for the molecule shown: NC(=O)c1c(Nc2ccc(N3CCS(=O)(=O)CC3)cc2)n[nH]c1NCc1ccc(O)cc1 [reference compound]
Ans. < 50 nM

Next:
Qu. Specify reported Kd for the molecule shown: `Cc1cc(CNc2[nH]nc(Nc3ccc(-c4cccnc4)cc3)c2C(N)=O)cc(C)c1O`
Ans. 50 to 100 nM

Qu. Specify reported Kd for the molecule shown: NC(=O)c1c(Nc2ccc(N3CCN(Cc4ccccc4)CC3)cc2)n[nH]c1NCc1ccc(O)cc1 [reference compound]
Ans. < 50 nM

Qu. Specify reported Kd for the molecule shown: NC(=O)c1c(Nc2ccc(N3CCC(N4CCCC4)CC3)nc2)n[nH]c1NCc1ccc(O)cc1 [reference compound]
Ans. < 50 nM

Qu. Specify reported Kd for the molecule shown: NC(=O)c1c(Nc2ccc(N3CCOCC3)c(F)c2)n[nH]c1NCc1ccc(O)cc1 [reference compound]
Ans. < 50 nM

###

Assay system JAK2 (Homo sapiens, UniProt O60674); read-out recorded as pKd.
pKd: −log10 of the molar value.

Example compounds with recorded pKd:
Qu. Please report pKd with JAK2 (Homo sapiens, UniProt O60674) for item NC(=O)c1c(Nc2ccc(N3CCC(Cl)CC3)cc2)n[nH]c1NCc1ccc(O)cc1 [reference compound] .
Sequence (O60674 840-1132 limits assumed): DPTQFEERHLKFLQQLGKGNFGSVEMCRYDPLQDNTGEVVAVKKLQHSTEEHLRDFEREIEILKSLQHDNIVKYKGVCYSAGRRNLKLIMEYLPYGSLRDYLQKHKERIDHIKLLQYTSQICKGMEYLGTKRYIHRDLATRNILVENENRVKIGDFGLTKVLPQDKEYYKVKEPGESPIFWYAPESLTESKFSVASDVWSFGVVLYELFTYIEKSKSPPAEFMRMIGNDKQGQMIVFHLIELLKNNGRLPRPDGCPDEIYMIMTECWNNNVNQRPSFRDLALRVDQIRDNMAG
Ans. > 7.30

Qu. Please report pKd with JAK2 (Homo sapiens, UniProt O60674) for item `Cc1cc(CNc2[nH]nc(Nc3ccc(N4C[C@@H](C)O[C@@H](C)C4)c(Cl)c3)c2C(N)=O)cc(C)c1O` .
Ans. < 6.00

Qu. Please report pKd with JAK2 (Homo sapiens, UniProt O60674) for item NC(=O)c1c(Nc2ccc(N3CCN(C(=O)N4CCOCC4)CC3)cc2)n[nH]c1NCc1ccc(O)cc1 [reference compound] .
Ans. > 7.30

Qu. Please report pKd with JAK2 (Homo sapiens, UniProt O60674) for item `Cc1cc(CNc2[nH]nc(Nc3ccc(N(C)C)cc3)c2C(N)=O)cc(C)c1O` .
Ans. < 6.00

Qu. Please report pKd with JAK2 (Homo sapiens, UniProt O60674) for item NC(=O)c1c(Nc2ccc(NC(=O)c3ccc(C(F)(F)F)cc3)cc2)n[nH]c1NCc1ccc(O)cc1 [reference compound] .
Ans. 6.00 to 7.00

Qu. Please report pKd with JAK2 (Homo sapiens, UniProt O60674) for item Cc1cc(CNc2[nH]nc(Nc3ccc(-n4ccnc4)cc3)c2C(N)=O)cc(C)c1O [drawing 179, reference compound] .
Ans. > 7.30

Qu. Please report pKd with JAK2 (Homo sapiens, UniProt O60674) for item `Cc1cc(CNc2[nH]nc(Nc3ccc(NC(=O)c4ccc(F)cc4)cc3)c2C(N)=O)cc(C)c1O` .
Ans. < 6.00

Qu. Please report pKd with JAK2 (Homo sapiens, UniProt O60674) for item N#CCc1ccc(Nc2n[nH]c(NCc3ccc(O)cc3)c2C(N)=O)cc1 [reference compound] .
Ans. > 7.30

Qu. Please report pKd with JAK2 (Homo sapiens, UniProt O60674) for item `Cc1cc(CNc2[nH]nc(Nc3ccc(N4CCCCC4)cc3)c2C(N)=O)cc(C)c1O` .
Ans. < 6.00

Qu. Please report pKd with JAK2 (Homo sapiens, UniProt O60674) for item CC1CCN(c2ccc(Nc3n[nH]c(NCc4ccc(O)cc4)c3C(N)=O)cc2)CC1 [reference compound] .
Ans. > 7.30

Next:
Qu. Please report pKd with JAK2 (Homo sapiens, UniProt O60674) for item N#Cc1cccc(Nc2n[nH]c(NCc3ccc(O)cc3)c2C(N)=O)c1 [reference compound] .
Ans. > 7.30
